# Assay target: fusion protein containing GAL4-DNA-binding domain and ERR full-length (Homo sapiens, UniProt P11474)
# Construct: expressed in transfected cells; host or cells: 293T cells
# Sequence (P11474 1-423): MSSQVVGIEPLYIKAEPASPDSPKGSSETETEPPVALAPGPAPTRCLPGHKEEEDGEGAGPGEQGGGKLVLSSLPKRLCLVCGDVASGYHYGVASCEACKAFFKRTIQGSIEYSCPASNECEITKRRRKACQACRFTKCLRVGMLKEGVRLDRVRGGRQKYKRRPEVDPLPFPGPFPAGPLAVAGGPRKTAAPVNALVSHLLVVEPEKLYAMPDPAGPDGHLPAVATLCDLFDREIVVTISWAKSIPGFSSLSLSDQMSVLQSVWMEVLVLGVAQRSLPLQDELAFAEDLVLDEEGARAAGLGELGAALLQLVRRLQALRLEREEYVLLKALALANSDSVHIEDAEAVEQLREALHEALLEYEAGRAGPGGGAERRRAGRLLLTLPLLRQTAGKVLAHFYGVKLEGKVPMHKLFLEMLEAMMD
# Protocol summary: Reporter assay system using 293T cells (GAL4-ERR luciferase, inverse agonist activity)
# Type: cell-based
# Protocol conditions: HEK-293T; compound final concentration 3 μM, 1 day; luciferase activity in 293T cells; no compound = 0%, 10 μM XCT-790 = 100%; read-out: inhibition rate (%) at 3 μM
Where inhibition at 3 µM equals or exceeds 90%, the correct label is Satisfied; where it does not, the label is Not satisfied.

Worked set:
{"columns": ["Molecule", "Cat"],
 "data": [
  ["COc1cc(/C=C2\\SC(=O)N=C2NCC(C)(C)O)ccc1Oc1ccc(C#N)cc1C(F)(F)F", "Satisfied"],
  ["CCN1C(=N)/C(=C/c2ccc(Oc3ccc(C#N)cc3C(F)(F)F)c(OC)c2)N(C)C1=O", "Satisfied"],
  ["CCN1C(=N)/C(=C\\c2ccc(Oc3ccc(C#N)cc3C(F)(F)F)c(OC)c2)N(C)C1=O", "Satisfied"]
]}

Decide: inhibition at 3 µM of COc1cc(/C=C2\SC(=O)N=C2NCCC2CCCN2C)ccc1Oc1ccc(C#N)c2ccccc12 (centres unmarked) >= 90%?
Not satisfied

src = patent US20130040951A9
